- System Tested: Albumin (Bos taurus)
- Measurement Description: compounds binding labelled BSA control protein – biochemical, small-molecule microarray, Alexa647 label, 635/667 nm fluorescence, artefact control for SMM control protein annotation, profiling panel (AID 1118);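 also: score merges 667 nm emission intensity and signal-to-noise per printed compound spot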
- Measurement Parameters: BSA-A647 binding, fluorescence 635 nm, higher = more signal
Reported Endpoint: composite z-score

Previously resolved entries follow.
* [N-]=[N+]=NCc1ccccc1C[C@]1(C(=O)NCCN2CCOCC2)N=C(c2ccc(OCCCO)cc2)O[C@H]1c1ccccc1CN=[N+]=[N-] | 0.825
* O=C1O[C@@H](c2ccccc2)[C@@H](c2ccccc2)N2[C@@H](c3ccc(O)cc3)[C@]3(C(=O)Nc4ccccc43)[C@@H](C(=O)NC[C@H](O)c3ccccc3)[C@H]12 | 0.726
* C=CCN1C(=O)[C@]2(Cc3ccccc31)N=C(c1ccc(OCCCO)cc1)O[C@@H]2c1ccccc1 | -0.171
* CCOC(=O)C1=C[C@@H](C(C)(C)C)N(S(=O)(=O)c2ccc(C)cc2)[C@H]1c1ccc(Cl)c(Cl)c1 | 0.867
* COc1cc(NN2C(C(O)c3ccccc3)C=CC3C(=O)N(c4ccccc4)C(=O)C32)cc(OC)c1OC (configuration not stated) | 0.923

Form field composite z-score, entry `COC(=O)[C@@]1(Cc2ccc(F)cc2)[C@H]2c3cc(C(=O)N4CCCC4)n(Cc4ccc(Cl)c(C(F)(F)F)c4)c3C[C@H]2CN1C(=O)c1ccccc1` : 1.02

Form field composite z-score, entry `COC(=O)[C@@]1(Cc2ccc(OC)cc2)[C@H]2c3cc(C(=O)N4CCCC4)n(C[C@H](O)CO)c3C[C@H]2CN1C(=O)c1ccccc1` : 0.947

====

- Tested on: wheat germ agglutinin (Triticum aestivum), Alexa647-labelled
- Measurement Description: Alexa647-WGA lectin binding to printed small molecules – biochemical, small-molecule microarray, 635/667 nm fluorescence, artefact control for SMM control-protein annotation, profiling panel (AID 1140);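 also: score merges 667 nm feature emission with signal to noise over triplicate slides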
- Measurement Parameters: WGA-A647 binding, 635 nm fluorescence, higher = more signal
# composite z-score per record follows
Reply with the value as a number alone.

- COC(=O)[C@@]1(Cc2ccc(F)cc2)[C@H]2c3cc(C(=O)N(C)C)n(CCc4c[nH]c5ccc(OC)cc45)c3C[C@H]2CN1C(=O)c1ccccc1: 1.37
- COc1ccc([Si](C)(C)[C@H]2[C@H](CCO)O[C@@]3(C(=O)N(Cc4ccccc4)c4ccc(N5C(=O)COc6ccccc65)cc43)[C@@H]2C)cc1: 1.1
- CCCC[C@@H]1C[C@H]1[C@@H](NC(=O)c1ccco1)c1ccccc1: -0.0439
- CCOC(=O)C1=CC[C@@H](c2ccccc2)N(S(=O)(=O)c2ccc(C)cc2)[C@H]1c1ccc(C#N)cc1: 1.23

Form field composite z-score, entry `Cc1ccc(S[C@]2(C(=O)NCCN3CCOCC3)CC(=O)N(C3CCCCC3)[C@@H]2c2ccc(CO)cc2)cc1` : 0.211

Form field composite z-score, entry Cn1c2c(c3ccccc31)C(=O)C1NC2C=CC1(C)C(=O)OCc1ccccc1 (stereo not given) : 0.757

Form field composite z-score, entry `COCCn1c(C(=O)N2CCCC2)cc2c1C[C@H]1CN(C(=O)c3ccccc3)[C@@](Cc3ccc(OC)cc3)(C(=O)OC)[C@@H]21` : 1.06

====

- Measurement Description: ATP-based viability of Huh7 replicon cells – cell-based, CellTiter-Glo luminescence, basal, 48 h, cytotoxicity control for HCV replication inhibitor project, primary screen (AID 1143);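 also: Huh7 hepatoma cells carrying a hepatitis C replication reporter with no stimulus; test concentration not given here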
- Measurement Parameters: higher = more signal, called active from +8 up or from −8 down
Reported Endpoint: z-score
Reply with the value as a number alone.

Previously resolved entries follow.
• C=CCOC(=O)[C@H]1[C@@H]2C(=O)O[C@@H](c3ccccc3)[C@@H](c3ccccc3)N2[C@@H](c2ccc(OCCOC(=O)[C@H]3C[C@H]4C(=O)N[C@@H](CCCC[N+](C)(C)C)C(=O)N4[C@H]3c3ccc(O)cc3)cc2)[C@]12C(=O)Nc1ccccc12 = -0.236
• COC(=O)[C@@]1(Cc2ccc(F)cc2)[C@H]2c3cc(C(=O)N4CCCC4)n(Cc4ccc(Cl)c(C(F)(F)F)c4)c3C[C@H]2CN1C(=O)c1ccccc1 = -2.95
• C[N+](C)(C)CCCCNC(=O)[C@H]1C[C@H]2C(=O)N3CCC[C@H]3C(=O)N2[C@H]1c1ccc(O)cc1 = -0.102
• C[N+](C)(C)CCCC[C@@H]1NC(=O)[C@H]2C[C@@H](C(=O)O)[C@@H](c3cccc(OCCO)c3)N2C1=O = 0.0605
• C=CCC(OC(C)=O)[C@@H]1[C@@H](N(Cc2ccc(-c3cccc(C(F)(F)F)c3)o2)C(=O)Cc2ccc(OC)cc2)c2cc(OCCCO)ccc2N1C(=O)Cc1ccc(OC)cc1 (stereo partly drawn) = -3.06

Form field z-score, entry `C=CCN1C(=O)[C@@]2(O[C@@H](CCO)[C@H]([Si](C)(C)c3ccc(OC)cc3)[C@H]2C)c2cc(N3C(=O)COc4ccccc43)ccc21` : -7.99

====

# z-score per record follows
- Measurement Description: change in splice reporter luminescence, either direction, cell-based, HEK293, spliceosome inhibition project, primary screen (AID 1101);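 also: HEK293 cells carrying a splicing-competent luciferase reporter gene; test concentration not given here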
- Measurement Parameters: HEK293 splicing luciferase reporter, 24 h, higher = more signal, called active from +8 up or from −8 down
Reply with the value as a number alone.

Previously resolved entries follow.
- COc1ccc([Si](C)(C)[C@@H]2[C@@H](CC(=O)N3Cc4ccccc4C[C@H]3CO)O[C@]3(C(=O)N(Cc4cccc(N5C(=O)COc6ccccc65)c4)c4ccccc43)[C@H]2C)cc1: -1.82
- [N-]=[N+]=NCc1ccccc1C[C@]1(C(=O)NCCN2CCOCC2)N=C(c2ccc(OCCCO)cc2)O[C@H]1c1ccccc1CN=[N+]=[N-]: -1.27
- COC(=O)[C@@]1(Cc2ccc(OC)cc2)[C@H]2c3cc(C(=O)N(C)C)n(Cc4ccc(OC)c(OC)c4)c3C[C@H]2CN1C(=O)c1ccccc1: -2.25
- C=CCCN(CC#C[C@H]1Oc2ccccc2S(=O)(=O)N2CCC[C@@H]12)S(=O)(=O)c1ccc(C)cc1: 3.09
- CC[C@@H]1C=C(C(=O)O)[C@H](c2ccc(C(C)C)cc2)N1S(=O)(=O)c1ccc(C)cc1: -0.0593
- COC(=O)[C@@]1(Cc2ccc(F)cc2)[C@H]2c3cc(C(=O)N(C)C)n(Cc4ccccn4)c3C[C@H]2CN1C(=O)c1ccccc1: -2.82
- O=C1[C@H]2C=C(Br)[C@H](C[C@@H]2OCCOCCO)[C@@]12CO2: 0.651
- COCCCNC(=O)[C@@]1(C)c2ccccc2C(=O)N(Cc2ccccc2)[C@H]1c1ccc(CO)cc1: -0.626
- CC(C)CNC(=O)[C@@]1(C)c2ccccc2C(=O)N(C(C)C)[C@H]1c1ccc(CO)cc1: -0.0251
- CCCC[C@H]1OB(O)C[C@H]2C1=C(C)Cn1c(=O)n(-c3ccccc3)c(=O)n12: -0.293

Now for another entry.
Form field z-score, entry `C=CCN1Cc2ccccc2C[C@]2(N=C(c3ccc(OCCCO)cc3)O[C@@H]2c2ccccc2)C1=O` : -1.44

====

- System Tested: Left-right determination factor 2 (Homo sapiens) (UniProt O00292)
- Sequence (O00292 whole entry, looked up): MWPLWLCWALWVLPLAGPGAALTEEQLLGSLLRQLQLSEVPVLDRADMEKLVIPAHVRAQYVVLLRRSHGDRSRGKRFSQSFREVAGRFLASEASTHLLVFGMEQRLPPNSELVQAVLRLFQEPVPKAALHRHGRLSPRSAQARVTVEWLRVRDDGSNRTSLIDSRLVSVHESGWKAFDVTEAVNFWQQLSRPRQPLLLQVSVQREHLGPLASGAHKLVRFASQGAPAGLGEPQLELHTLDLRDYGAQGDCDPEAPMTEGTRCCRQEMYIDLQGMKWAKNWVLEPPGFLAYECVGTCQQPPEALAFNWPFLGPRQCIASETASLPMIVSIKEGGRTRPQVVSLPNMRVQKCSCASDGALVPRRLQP
- Measurement Description: small molecules binding LEFTY2 protein – biochemical, small-molecule microarray, 635 nm fluorescence scan, primary screen (AID 1110)
- Measurement Parameters: higher = more signal
# composite z-score per record follows
Reply with the value as a number alone.

- O=C1OCC=C[C@H]2OC34C=CCN(c5ccc6ccccc6c5)C(=O)[C@H]3N(CCO)C(=O)[C@@H]4[C@@H]12 (some centres not stated): -1.99
- C=CCC(OC(C)=O)[C@@H]1[C@@H](N(Cc2ccc(-c3cccc(C(F)(F)F)c3)o2)C(=O)Cc2ccc(OC)cc2)c2cc(OCCCO)ccc2N1C(=O)Cc1ccc(OC)cc1 (some centres not stated): -0.606
- CS(=O)(=O)CCOC(=O)C1=CC(c2ccc(CO)cc2)=CC(c2cccs2)N(Cc2cccc(OC(F)(F)F)c2)C=C1C(=O)OCCS(C)(=O)=O (configuration not stated): 0.192

Now for another entry.
Lab note: compound CC(C)(C)OC(=O)CC[C@]1(C(=O)NCC(O)CO)N=C(c2ccc(OCCCO)cc2)O[C@H]1c1ccccc1CN=[N+]=[N-] (some centres not stated) tested on Left-right determination factor 2 (Homo sapiens) (UniProt O00292); recorded composite z-score was -0.167

====

# z-score per record follows
- Measurement Description: budding yeast growth changes without added modifier – OD600, strain BY4716, 24 h, basal condition, primary screen (AID 1173)
- Measurement Parameters: S. cerevisiae BY4716 growth, OD600, 24 h; higher = more signal, called active from +8 up or from −8 down
Reply with the value as a number alone.

Previously resolved entries follow.
* O=C1[C@H]2C=C(Br)[C@H](C[C@@H]2OCCOCCO)[C@@]12CO2 | 1.2
* NC(=O)NCC#Cc1ccc2c(c1)[C@]1(C(=O)N2)[C@H](C(=O)NC[C@H](O)c2ccccc2)[C@H]2C(=O)O[C@H](c3ccccc3)[C@H](c3ccccc3)N2[C@@H]1c1ccccc1OCCO | 0.328

Form field z-score, entry `O=C1O[C@H](c2ccccc2)[C@H](c2ccccc2)N2[C@H]1[C@@H](C(=O)N1CCCCCCC1)[C@]1(C(=O)Nc3ccc(C#CC4=CCCCC4)cc31)[C@H]2c1ccc(O)cc1` : -0.63
